System: PfAP2-EXP AP2 domain (GST-tagged)
Test: gcPBM binding intensity (ln(normalized median fluorescence intensity)); higher = stronger DNA binding
Over roughly 25,000 sequences, “ln(normalized median fluorescence intensity)” has its median near 8.6; the highest 2% begin near 10. What follows is part of a selection rich in the highest values, with near analogues and random picks from the rest.
Quick reference: gcPBM binding intensity (ln) of the listed items.

>  <Sequence Record>
AATAATATATTTAGGGGTACATAATAATATATTTTA [XGTACX_site8366]

>  <gcPBM binding intensity (ln)>
8.81

$$$$
>  <Sequence Record>
TTAGGCAAGGCGGGGGGTACGTTTTTATATAATTAT [XGTACX_site8029]

>  <gcPBM binding intensity (ln)>
10.7

$$$$
>  <Sequence Record>
ATTTAAAATGGTTATACACACATAAAAGGGGAAATG [CACACA_site2649]

>  <gcPBM binding intensity (ln)>
8.95

$$$$
>  <Sequence Record>
AAATATATTATAAATTGTACGTTTATATATATTATT [XGTACX_site5110]

>  <gcPBM binding intensity (ln)>
8.29

$$$$
>  <Sequence Record>
AAAAAAATATATATTACACACATATATACCTATATA [CACACA_site5688]

>  <gcPBM binding intensity (ln)>
8.18

$$$$
